Assignment: determine reported DC50 for the given molecules.
Target Or System: wildtype LRRK2 (Homo sapiens)
Construct: expressed in transfected cells; host or cells: HEK293 (ATCC CRL-1573), transient transfection, mammalian expression vector with ubiquitin promoter
Sequence (Q5S007 whole entry): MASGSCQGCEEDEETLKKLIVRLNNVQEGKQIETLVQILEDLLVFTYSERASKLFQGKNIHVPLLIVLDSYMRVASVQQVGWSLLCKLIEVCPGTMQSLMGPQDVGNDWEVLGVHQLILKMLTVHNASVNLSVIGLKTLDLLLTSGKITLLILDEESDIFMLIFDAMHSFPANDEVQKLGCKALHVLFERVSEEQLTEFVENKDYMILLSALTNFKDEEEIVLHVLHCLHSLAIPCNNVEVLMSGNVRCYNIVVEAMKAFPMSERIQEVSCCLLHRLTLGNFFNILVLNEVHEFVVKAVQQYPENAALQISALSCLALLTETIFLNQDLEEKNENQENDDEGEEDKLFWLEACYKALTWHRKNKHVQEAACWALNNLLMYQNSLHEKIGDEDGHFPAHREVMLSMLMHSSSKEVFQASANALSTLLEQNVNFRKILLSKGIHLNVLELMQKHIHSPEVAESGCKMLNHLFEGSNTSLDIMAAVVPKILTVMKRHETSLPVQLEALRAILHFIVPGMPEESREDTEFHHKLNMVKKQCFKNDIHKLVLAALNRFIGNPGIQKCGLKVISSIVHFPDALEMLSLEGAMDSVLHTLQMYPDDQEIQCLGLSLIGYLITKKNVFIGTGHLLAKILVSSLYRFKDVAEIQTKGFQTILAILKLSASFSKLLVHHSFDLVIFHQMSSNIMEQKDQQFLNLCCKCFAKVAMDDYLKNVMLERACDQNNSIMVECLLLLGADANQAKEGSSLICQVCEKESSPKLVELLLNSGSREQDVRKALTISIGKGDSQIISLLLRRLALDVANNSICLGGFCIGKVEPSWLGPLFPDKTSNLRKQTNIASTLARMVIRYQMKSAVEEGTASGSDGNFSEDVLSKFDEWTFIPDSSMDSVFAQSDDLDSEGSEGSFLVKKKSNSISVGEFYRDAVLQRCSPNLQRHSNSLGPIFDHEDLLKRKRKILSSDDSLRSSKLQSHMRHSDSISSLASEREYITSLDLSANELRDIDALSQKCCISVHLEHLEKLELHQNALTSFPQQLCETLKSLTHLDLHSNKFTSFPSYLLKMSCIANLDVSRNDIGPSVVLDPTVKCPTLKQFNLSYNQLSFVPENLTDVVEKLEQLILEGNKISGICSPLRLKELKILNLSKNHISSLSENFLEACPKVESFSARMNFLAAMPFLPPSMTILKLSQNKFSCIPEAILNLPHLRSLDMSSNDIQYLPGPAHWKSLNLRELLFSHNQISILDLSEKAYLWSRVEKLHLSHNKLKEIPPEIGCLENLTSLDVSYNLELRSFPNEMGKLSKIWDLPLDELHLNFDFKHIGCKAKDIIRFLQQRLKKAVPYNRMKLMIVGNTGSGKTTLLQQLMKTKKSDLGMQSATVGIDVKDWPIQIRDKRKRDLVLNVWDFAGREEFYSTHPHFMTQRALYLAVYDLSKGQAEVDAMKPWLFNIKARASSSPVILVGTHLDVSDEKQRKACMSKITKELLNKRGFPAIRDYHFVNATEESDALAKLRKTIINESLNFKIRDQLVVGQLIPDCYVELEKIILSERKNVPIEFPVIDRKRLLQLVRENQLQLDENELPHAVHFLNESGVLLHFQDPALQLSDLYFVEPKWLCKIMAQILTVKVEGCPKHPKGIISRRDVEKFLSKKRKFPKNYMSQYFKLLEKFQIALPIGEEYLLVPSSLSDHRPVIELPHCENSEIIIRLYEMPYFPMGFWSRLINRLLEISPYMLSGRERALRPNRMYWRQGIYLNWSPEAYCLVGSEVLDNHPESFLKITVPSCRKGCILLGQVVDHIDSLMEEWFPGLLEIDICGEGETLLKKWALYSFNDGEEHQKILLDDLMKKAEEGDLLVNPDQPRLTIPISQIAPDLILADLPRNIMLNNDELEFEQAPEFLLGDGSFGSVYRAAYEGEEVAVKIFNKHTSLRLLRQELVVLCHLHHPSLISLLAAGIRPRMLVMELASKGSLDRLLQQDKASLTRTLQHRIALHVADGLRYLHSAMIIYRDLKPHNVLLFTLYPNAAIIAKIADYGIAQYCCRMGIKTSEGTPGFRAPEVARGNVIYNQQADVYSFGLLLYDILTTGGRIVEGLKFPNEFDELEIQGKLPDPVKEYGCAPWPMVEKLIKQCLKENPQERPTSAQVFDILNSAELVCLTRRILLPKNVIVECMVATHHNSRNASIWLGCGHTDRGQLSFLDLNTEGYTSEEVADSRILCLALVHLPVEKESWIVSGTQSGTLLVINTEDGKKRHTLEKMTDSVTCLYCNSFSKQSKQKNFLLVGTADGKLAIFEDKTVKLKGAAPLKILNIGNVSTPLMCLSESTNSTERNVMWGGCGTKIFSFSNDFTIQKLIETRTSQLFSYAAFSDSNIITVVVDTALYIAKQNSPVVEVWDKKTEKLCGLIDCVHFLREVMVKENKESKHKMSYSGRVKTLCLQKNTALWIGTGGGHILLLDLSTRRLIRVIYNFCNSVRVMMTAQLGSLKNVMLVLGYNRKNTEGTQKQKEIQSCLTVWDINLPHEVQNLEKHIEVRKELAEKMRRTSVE
Assay Protocol: LRRK2 degradation assay, HiBit-tagged wildtype LRRK2 expressed from plasmid in HEK293 cells (Nano-Glo Dual-Luciferase)
Format: cell-based
Applied Conditions: HiBit-tagged wildtype LRRK2, HEK293 cells, 24 hours; read-out: *WT DC50

DC50 lookup needed for CC1(Oc2ccc3[nH]nc(-c4cc(N5CCO[C@H](CN6CCN(CC7CCN(c8ccc9c(c8)C(=O)N(C8CCC(=O)NC8=O)C9=O)CC7)CC6)C5)ncn4)c3c2)CC1 (stereo partly drawn) , thanks.
< 10 nM

Fill in: DC50 of CC1(Oc2ccc3[nH]nc(-c4cc(N5CCN(Cc6cccc(CN7CCN(c8ccc9c(c8)C(=O)N(C8CCC(=O)NC8=O)C9=O)CC7)c6)CC5)ncn4)c3c2)CC1 (stereo not drawn) is ___
≥ 100 nM

Fill in: DC50 of CC1(Oc2ccc3[nH]nc(-c4cc(N5CCN(C[C@@H]6CN(CCC7CCN(c8ccc9c(c8)C(=O)N(C8CCC(=O)NC8=O)C9=O)CC7)CCO6)CC5)ncn4)c3c2)CC1 (stereo partly drawn) is ___
< 10 nM

----------
Target Or System: G2019S LRRK2 (Homo sapiens, UniProt Q5S007, G2019S)
Construct: expressed in transfected cells; host or cells: HEK293 (ATCC CRL-1573), transient transfection, mammalian expression vector with ubiquitin promoter
Sequence (Q5S007 whole entry G2019S): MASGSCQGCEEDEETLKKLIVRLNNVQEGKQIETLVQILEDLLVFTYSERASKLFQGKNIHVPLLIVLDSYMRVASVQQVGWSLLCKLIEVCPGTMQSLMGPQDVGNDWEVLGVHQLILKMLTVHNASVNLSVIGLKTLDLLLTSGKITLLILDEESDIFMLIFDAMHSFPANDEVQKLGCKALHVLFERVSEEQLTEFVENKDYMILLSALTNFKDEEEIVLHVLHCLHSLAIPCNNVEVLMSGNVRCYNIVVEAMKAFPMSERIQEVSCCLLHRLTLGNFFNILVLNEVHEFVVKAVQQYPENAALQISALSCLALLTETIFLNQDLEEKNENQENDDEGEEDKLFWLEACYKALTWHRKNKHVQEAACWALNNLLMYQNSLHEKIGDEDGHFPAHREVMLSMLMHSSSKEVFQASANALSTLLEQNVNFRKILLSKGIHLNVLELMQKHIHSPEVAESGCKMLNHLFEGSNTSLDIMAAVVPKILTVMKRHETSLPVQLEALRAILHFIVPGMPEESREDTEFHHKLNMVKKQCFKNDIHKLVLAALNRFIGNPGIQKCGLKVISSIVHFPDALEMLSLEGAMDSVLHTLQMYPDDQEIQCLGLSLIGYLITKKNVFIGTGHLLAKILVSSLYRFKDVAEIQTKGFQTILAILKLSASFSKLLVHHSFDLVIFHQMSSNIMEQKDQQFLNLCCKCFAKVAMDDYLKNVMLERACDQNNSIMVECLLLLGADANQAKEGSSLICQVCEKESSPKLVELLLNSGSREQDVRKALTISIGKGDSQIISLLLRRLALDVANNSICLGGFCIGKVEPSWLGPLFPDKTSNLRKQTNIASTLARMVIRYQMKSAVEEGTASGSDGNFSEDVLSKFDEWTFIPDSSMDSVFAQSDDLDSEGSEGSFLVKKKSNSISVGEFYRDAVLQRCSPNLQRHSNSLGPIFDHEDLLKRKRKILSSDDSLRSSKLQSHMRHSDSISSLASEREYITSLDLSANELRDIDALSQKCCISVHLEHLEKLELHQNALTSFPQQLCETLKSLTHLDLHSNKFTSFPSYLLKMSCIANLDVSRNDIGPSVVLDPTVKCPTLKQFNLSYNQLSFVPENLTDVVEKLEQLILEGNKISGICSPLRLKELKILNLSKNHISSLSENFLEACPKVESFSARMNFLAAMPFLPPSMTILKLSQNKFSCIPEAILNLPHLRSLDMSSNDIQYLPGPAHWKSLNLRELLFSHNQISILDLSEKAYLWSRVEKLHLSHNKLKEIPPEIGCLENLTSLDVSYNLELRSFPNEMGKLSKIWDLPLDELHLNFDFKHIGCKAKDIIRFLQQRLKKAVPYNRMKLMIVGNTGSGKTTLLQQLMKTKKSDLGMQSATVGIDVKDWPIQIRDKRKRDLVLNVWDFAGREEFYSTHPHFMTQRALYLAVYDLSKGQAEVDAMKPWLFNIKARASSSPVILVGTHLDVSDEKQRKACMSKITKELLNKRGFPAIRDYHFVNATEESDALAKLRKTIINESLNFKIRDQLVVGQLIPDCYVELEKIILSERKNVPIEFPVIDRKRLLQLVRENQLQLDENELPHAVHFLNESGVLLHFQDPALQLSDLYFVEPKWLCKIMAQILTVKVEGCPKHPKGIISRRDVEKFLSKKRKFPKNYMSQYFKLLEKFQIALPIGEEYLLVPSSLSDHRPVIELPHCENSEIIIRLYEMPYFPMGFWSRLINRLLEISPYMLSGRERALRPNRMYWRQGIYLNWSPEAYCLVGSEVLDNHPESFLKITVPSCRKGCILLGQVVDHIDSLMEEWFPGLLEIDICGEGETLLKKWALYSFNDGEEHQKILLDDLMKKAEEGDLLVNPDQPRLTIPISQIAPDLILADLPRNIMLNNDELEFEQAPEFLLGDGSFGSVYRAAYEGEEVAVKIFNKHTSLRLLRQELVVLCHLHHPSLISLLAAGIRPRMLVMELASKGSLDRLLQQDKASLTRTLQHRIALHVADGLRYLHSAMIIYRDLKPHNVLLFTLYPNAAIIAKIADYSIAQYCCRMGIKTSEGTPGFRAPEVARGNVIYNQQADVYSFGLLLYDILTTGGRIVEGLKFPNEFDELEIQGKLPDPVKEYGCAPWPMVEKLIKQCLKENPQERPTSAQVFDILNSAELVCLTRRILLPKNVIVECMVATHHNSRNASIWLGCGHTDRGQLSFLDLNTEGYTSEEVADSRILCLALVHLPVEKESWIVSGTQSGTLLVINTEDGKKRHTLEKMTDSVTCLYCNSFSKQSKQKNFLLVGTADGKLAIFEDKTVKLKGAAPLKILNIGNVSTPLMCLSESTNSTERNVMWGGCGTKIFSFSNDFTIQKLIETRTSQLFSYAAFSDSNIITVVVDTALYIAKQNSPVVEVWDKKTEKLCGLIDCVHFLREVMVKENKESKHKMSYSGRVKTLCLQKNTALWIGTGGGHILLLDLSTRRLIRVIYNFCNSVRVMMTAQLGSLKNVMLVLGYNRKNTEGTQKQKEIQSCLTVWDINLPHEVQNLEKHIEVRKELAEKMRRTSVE
Assay Protocol: LRRK2 degradation assay, HiBit-tagged G2019S LRRK2 expressed from plasmid in HEK293 cells (Nano-Glo Dual-Luciferase)
Format: cell-based
Applied Conditions: HiBit-tagged G2019S LRRK2 in HEK293 cells, 24 hours
So I've got a bunch of compounds here, and I need their DC50 values.

Which value of DC50 has been reported for C[C@H]1CN(c2cc(-c3n[nH]c4ccc(OC5(C)CC5)cc34)ncn2)CCN1CC1CCN(CCCNc2cccc3c2C(=O)N(C2CCC(=O)NC2=O)C3=O)CC1 (stereo partly shown) in the records?
< 0.01 µM

Which DC50 is reported for this compound? CC1(Oc2ccc3[nH]nc(-c4cc(N5CCN(C[C@H]6CC(=O)N(CC7CCN(c8ccc9c(c8)C(=O)N(C8CCC(=O)NC8=O)C9=O)CC7)C6)CC5)ncn4)c3c2)CC1 (single isomer, unassigned)
< 0.01 µM

So what does the record say about DC50 for CC1(Oc2ccc3n[nH]c(-c4ccnc(N5CCN(C(=O)C6CCN(CC7CCN(c8ccc9c(c8)C(=O)N(C8CCC(=O)NC8=O)C9=O)CC7)CC6)CC5)c4)c3c2)CC1 (stereo not shown) ?
< 0.01 µM

Entry under review: C[C@H]1CN(c2cc(-c3n[nH]c4ccc(OC5(C)CC5)cc34)ncn2)CCN1CC1CCN(CC2CCN(c3cc4c(cc3F)C(=O)N(C3CCC(=O)NC3=O)C4=O)CC2)CC1 (stereo partly shown) . Reported DC50?
< 0.01 µM

# get_value(readout='DC50', item= CC1(Oc2ccc3[nH]nc(-c4ccnc(N5CCN(CC6(F)CCN(CC7CCN(c8ccc9c(c8)C(=O)N(C8CCC(=O)NC8=O)C9=O)CC7)CC6)CC5)c4)c3c2)CC1 (stereo not shown) )
< 0.01 µM

What does the data say about its DC50? Entry: CC1(Oc2ccc3[nH]nc(-c4cc(N5CCC(CN6CCN(CC7CN(c8ccc9c(c8)C(=O)N(C8CCC(=O)NC8=O)C9=O)C7)CC6)CC5)ncn4)c3c2)CC1 (stereo not shown)
< 0.01 µM

Reported DC50 for CC1(Oc2ccc3[nH]nc(-c4ccnc(N5CC(F)(CN6CCN(CC7CCN(c8ccc9c(c8)C(=O)N(C8CCC(=O)NC8=O)C9=O)CC7)CC6)C5)c4)c3c2)CC1 (stereo not shown) : what is it?
< 0.01 µM

I am curious: what DC50 value has been reported for CC1(Oc2ccc3[nH]nc(-c4cc(N5CCC(CN6CC[C@@H](OC7CCN(c8ccc9c(c8)C(=O)N(C8CCC(=O)NC8=O)C9=O)CC7)C6)CC5)ncn4)c3c2)CC1 (stereo partly shown) ?
< 0.01 µM

Any idea what its DC50 is? The compound is CC1(Oc2ccc3[nH]nc(-c4ccnc(N5CCC(O[C@H]6CC[C@H](OC7CCN(c8ccc9c(c8)C(=O)N(C8CCC(=O)NC8=O)C9=O)CC7)CC6)CC5)c4)c3c2)CC1 (stereo partly shown)
0.01 to 0.05 µM

Give its DC50 value. Item: CC1(Oc2ccc3[nH]nc(-c4ccnc(N5CCC(CN6CCC(F)(CN7CCN(c8ccc9c(c8)C(=O)N(C8CCC(=O)NC8=O)C9=O)CC7)CC6)CC5)c4)c3c2)CC1 (stereo not shown)
0.01 to 0.05 µM

----------
Kindly state Dmax for each of the entries shown.
Target Or System: G2019S LRRK2 (Homo sapiens, UniProt Q5S007, G2019S)
Construct: expressed in transfected cells; host or cells: HEK293 (ATCC CRL-1573), transient transfection, mammalian expression vector with ubiquitin promoter
Assay Protocol: LRRK2 degradation assay, HiBit-tagged G2019S LRRK2 expressed from plasmid in HEK293 cells (Nano-Glo Dual-Luciferase)
Format: cell-based
Applied Conditions: HiBit-tagged G2019S LRRK2 in HEK293 cells, 24 hours

Which value of Dmax has been reported for CC1(Oc2ccc3n[nH]c(-c4cc(N5CCC(COC6CCN(CC7CCN(c8ccc9c(c8)C(=O)N(C8CCC(=O)NC8=O)C9=O)CC7)CC6)CC5)ncn4)c3c2)CC1 (centres unmarked) [Compound 61] in the records?
≥ 70%

Recorded Dmax for CC1(Oc2ccc3[nH]nc(-c4cc(N5CCC(CN6CCC(F)(CN7CCN(c8ccc9c(c8)C(=O)N(C8CCC(=O)NC8=O)C9=O)CC7)CC6)CC5)ncn4)c3c2)CC1 (centres unmarked) [Compound 83] , please?
≥ 70%

For C[C@H]1CN(c2cc(-c3n[nH]c4ccc(OC5(C)CC5)cc34)ncn2)CCN1CC1(F)CCN(CC2CCN(c3ccc4c(c3)C(=O)N(C3CCC(=O)NC3=O)C4=O)CC2)CC1 (some centres unmarked) [Compound 69] , what is its reported Dmax?
< 50%

Which Dmax is listed for CC1(Oc2ccc3n[nH]c(-c4cc(N5CCC(CN6CCN(CC7CCN(c8cccc9c8CN(C8CCC(=O)NC8=O)C9=O)CC7)CC6)CC5)ncn4)c3c2)CC1 (centres unmarked) [Compound 147] ?
≥ 70%

I am curious: what Dmax value has been reported for C[C@H]1CN(c2cc(-c3n[nH]c4ccc(OC5(C)CC5)cc34)ncn2)CCN1CC1CCN(CCCOc2cccc3c2C(=O)N(C2CCC(=O)NC2=O)C3=O)CC1 (some centres unmarked) [Compound 139] ?
< 50%

Suppose we examine the molecule CC1(Oc2ccc3[nH]nc(-c4cc(N5CCC(C(=O)N6CCC(CC7CCN(c8ccc9c(c8)C(=O)N(C8CCC(=O)NC8=O)C9=O)CC7)CC6)CC5)ncn4)c3c2)CC1 (centres unmarked) [Compound 88] ; what Dmax value has been reported?
50 to 70%

Item CC1(Oc2ccc3[nH]nc(-c4cc(N5CCC(CN6CCN(CC7CN(c8ccc9c(c8)C(=O)N(C8CCC(=O)NC8=O)C9=O)C7)CC6)CC5)ncn4)c3c2)CC1 (centres unmarked) [Compound 133] has what recorded Dmax?
50 to 70%

Name the reported Dmax value associated with the molecule CC1(Oc2ccc3n[nH]c(-c4cc(N5CCN(CC6(F)CCN(CC7CN(c8ccc9c(c8)C(=O)N(C8CCC(=O)NC8=O)C9=O)C7)CC6)CC5)ncn4)c3c2)CC1 (centres unmarked) [Compound 135]
50 to 70%

Look up Dmax for this molecule: CC1(Oc2ccc3[nH]nc(-c4ccnc(N5CCN(CC6CCN(C(=O)C7CCN(c8ccc9c(c8)C(=O)N(C8CCC(=O)NC8=O)C9=O)CC7)CC6)CC5)c4)c3c2)CC1 (centres unmarked) [Compound 91]
50 to 70%

Find the recorded Dmax belonging to CC1(Oc2ccc3[nH]nc(-c4ccnc(N5CCC(C(=O)N6CCC(CN7CCN(c8ccc9c(c8)C(=O)N(C8CCC(=O)NC8=O)C9=O)CC7)CC6)CC5)c4)c3c2)CC1 (centres unmarked) [Compound 87] and report it.
< 50%

Give the measured Dmax of CC1(Oc2ccc3[nH]nc(-c4cc(N5CCO[C@H](CN6CCC(OC7CCN(c8ccc9c(c8)C(=O)N(C8CCC(=O)NC8=O)C9=O)CC7)CC6)C5)ncn4)c3c2)CC1 (some centres unmarked) [Compound 150] .
50 to 70%

----------
Target Or System: G2019S LRRK2 (Homo sapiens, UniProt Q5S007, G2019S)
Construct: expressed in transfected cells; host or cells: HEK293 (ATCC CRL-1573), transient transfection, mammalian expression vector with ubiquitin promoter
Assay Protocol: LRRK2 degradation assay, HiBit-tagged G2019S LRRK2 expressed from plasmid in HEK293 cells (Nano-Glo Dual-Luciferase)
Format: cell-based
Applied Conditions: HiBit-tagged G2019S LRRK2 in HEK293 cells, 24 hours
Please go through the items and note down their DC50.

Entry under review: CC1(Oc2ccc3[nH]nc(-c4cc(N5CCN(CC67CC(CN8CCN(c9ccc%10c(c9)C(=O)N(C9CCC(=O)NC9=O)C%10=O)CC8)(C6)C7)CC5)ncn4)c3c2)CC1 (centres unmarked) [Compound 124] . Reported DC50?
10 to 50 nM

What does the data say about its DC50? Entry: CC1(Oc2ccc3[nH]nc(-c4cc(N5CCN(CC(F)(F)C6CCN(CC7CCN(c8cccc9c8C(=O)N(C8CCC(=O)NC8=O)C9=O)CC7)CC6)CC5)ncn4)c3c2)CC1 (centres unmarked) [Compound 148]
10 to 50 nM

Would you kindly share the measured DC50 for CC1(Oc2ccc3n[nH]c(-c4cc(N5CCC(CN6CCN(CC7CCN(c8ccc9c(c8)CN(C8CCC(=O)NC8=O)C9=O)CC7)CC6)CC5)ncn4)c3c2)CC1 (centres unmarked) [Compound 112] ?
< 10 nM

Could you tell me which DC50 is on file for CC1(Oc2ccc3[nH]nc(-c4cc(N5CCN(C[C@@H]6CC(=O)N(CC7CCN(c8ccc9c(c8)C(=O)N(C8CCC(=O)NC8=O)C9=O)CC7)C6)CC5)ncn4)c3c2)CC1 (single isomer, unassigned) [Compound 121] ?
< 10 nM

Give its DC50 value. Item: C[C@H]1CN(c2cc(-c3[nH]nc4ccc(OC5(C)CC5)cc34)ncn2)CCN1CCC1(F)CCN(CC2CCN(c3ccc4c(c3)CN(C3CCC(=O)NC3=O)C4=O)CC2)CC1 (some centres unmarked) [Compound 64]
< 10 nM
